Data credit: paper PMC12849132

- TESTED SYSTEM: PhaR (Ralstonia eutropha H16 (Cupriavidus necator)) (UniProt Q0KBP6)
- Sequence: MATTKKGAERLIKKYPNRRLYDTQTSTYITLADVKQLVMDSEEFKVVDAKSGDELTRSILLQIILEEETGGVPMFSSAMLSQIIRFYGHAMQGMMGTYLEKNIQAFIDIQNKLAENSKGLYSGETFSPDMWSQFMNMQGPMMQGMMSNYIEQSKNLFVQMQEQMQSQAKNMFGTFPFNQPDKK
- EXPERIMENT SUMMARY: EMSA
- RUN PARAMETERS: EMSA: 0-250 ng PhaR, ~75 ng FAM-DNA, 5 uL master mix (1.75 uL 10x TBE, 0.25 uL 10 mg/mL herring sperm DNA, 3 uL DNA), 30 min at 37 C, 7.5% native PAGE
PARAMETER: binding

1) ATCGAATTCTGTATTCAGAGATCCGTTCCAAGCGTCTGGGGTGAAGTGCGCCCTACACATGTCATGCACTGCAACATTTCTGCGTAAGCACATGTAAATTTAGAGACGTACGATGCACTTTTATTGTCCTGTTTTAAAGACTTTTTGGGTATATACCTAGGGATCAAATTAGAGGAAACCCTCTAGGATTCGCACTCGGATGCT (double strand) [F1 (BS1, phaP3)]: binds
2) ATCGAATTCACGATGCACTTTTATTGTCCTGTTTTAAAGACTTTTTGGGTATATACCTAGGGATCAAATTAGAGGAAACCCTCTAGGATTCGCACTCGGATGCTGCGCTGCAGGATTGGTGGCGCTGTCAATCCGGAAGCCAAACCGAAGCGGATTCACGTTGCAATCTGTTGCGCGAATCCGTTCGATCAATCCACAG (double strand) [F2 (BS2, phaP3)]: binds more weakly
3) ATCGAATTCTGTATTCAGAGATCCGTTCCAAGCGTCTGGGGTGAAGTGCGCCCTACACATGTCATGCACTGCAACATTTCTGCGTAAGCACATGTAAATTTAGAGACGTACGATGCACTTTTATTGTCCTGTTTTAAAGACTTTTTGGGTATATACCTAGGGATCAAATTAGAGGAAACCCTCTAGGATTCGCACTCGGATGCTGCGCTGCAGGATTGGTGGCGCTGTCAATCCGGAAGCCAAACCGAAGCGGATTCACGTTGCAATCTGTTGCGCGAATCCGTTCGATCAATCCACAG (double strand) [F4 (BS1+BS2, phaP3)]: binds
4) GGCGCTGTCAATCCGGAAGCCAAACCGAAGCGGATTCACGTTGCAATCTGTTGCGCGAATCCGTTCGATCAATCCACAGGAGATTTTGCATGTCCCCTTTTATGCCCGAGCAATTTGCTGCAGTGCAAAAGTCCAGTCTGAACCAACTGTTCGCGCTGACGAACATGGCTTTTGACGGCGGA (double strand) [F3 (BS3, phaP3)]: binds more weakly
